# System: Calvarial osteoblast
# protocol text: Osteogenic activity in rat calvarial osteoblast cells assessed as induction of cell differentiation by measuring alkaline phosphatase activity using pNPP as substrate by calorimetric analysis
# Format: functional, cell-based
# run conditions: Rattus norvegicus, Calvarial osteoblast
readout kind: pEC50
Give bare numbers, as −log10 of the molar value.

[[record]]
input_smiles = "COc1cc2oc(=O)cc(-c3ccccc3)c2cc1O"
target_or_system = "Calvarial osteoblast"
endpoint_value = 8.99

[[record]]
input_smiles = "COc1cc(OC)c(/C(=C/C=O)c2ccccc2)cc1O"
target_or_system = "Calvarial osteoblast"
endpoint_value = 8.19


Turning to the following compound.
Record request: pEC50 value, item COc1cc2c(cc1O)C(c1ccccc1)=CCO2
5.77
